// data source = patent US20090317363A1

TARGET_DESC: CCR5 (UniProt P51681)
ASSAY: cell-based or functional assay
MEASUREMENT_KIND: anti-HIV potency (IC50, nM) by cell fusion assay
Express the reported value numerically, then name its unit.

Answer with reported anti-HIV potency (IC50, nM) by cell fusion assay of RANTES derivative: signature sequence SEQ ID NO: 32 fused to positions 10-68 of native RANTES (SEQ ID NO: 1) (ligand) QGPPGQWSQVCCFAYIARPLPRAHIKEYFYTSGKCSNPAVVFVTRKNRQVCANPEKKWVREYINSLEMS
0.03 nM

Answer with reported anti-HIV potency (IC50, nM) by cell fusion assay of RANTES derivative: signature sequence SEQ ID NO: 34 fused to positions 10-68 of native RANTES (SEQ ID NO: 1) (ligand) QGPPLSWQQSCCFAYIARPLPRAHIKEYFYTSGKCSNPAVVFVTRKNRQVCANPEKKWVREYINSLEMS
0.03 nM

Specify anti-HIV potency (IC50, nM) by cell fusion assay for RANTES derivative: signature sequence SEQ ID NO: 43 fused to positions 10-68 of native RANTES (SEQ ID NO: 1) (ligand) QGPPMQGGLSCCFAYIARPLPRAHIKEYFYTSGKCSNPAVVFVTRKNRQVCANPEKKWVREYINSLEMS and stop.
0.29 nM
